# Test system: A549-mRuby cells
# Assay procedure: Drug screening: effect on cell growth (cell number day 4 / day 0)
# Experimental conditions: 10 μM drug, repeat #2
Where a name gives a salt, the structure may show the parent alone.
Note to self: values exactly at 4 are label 1. So Growth_2: number of cells at day 4 divided by number of cells at day 0 at or above 4 is label 1, below is label 0.

Molecule | Label
C#C[C@]1(O)CC[C@H]2[C@@H]3CCC4=CC(=O)CC[C@@H]4[C@H]3C(=C)C[C@@]21CC | label 1
Cc1cc(C(C)(C)C)cc(C)c1CC1=NCCN1 [Xylometazoline HCl] | label 1
CC(C)(O)CNc1nc(Nc2ccnc(C(F)(F)F)c2)nc(-c2cccc(C(F)(F)F)n2)n1 | label 1
CS(=O)(=O)CCNCc1ccc(-c2ccc3ncnc(Nc4ccc(OCc5cccc(F)c5)c(Cl)c4)c3c2)o1.Cc1ccc(S(=O)(=O)O)cc1.Cc1ccc(S(=O)(=O)O)cc1 [Lapatinib (GW-572016) Ditosylate] | label 1
CCCCOC(=O)c1ccc(O)cc1 | label 0
CN1CCC(=C2c3ccccc3C=Cc3ccccc32)CC1 [Cyproheptadine HCl] | label 0
